Numbers sourced from ChEMBL document CHEMBL3875210.

// reported inhibition per item
system: pancreatic lipase (Sus scrofa); experiment: Inhibition of pancreatic lipase (unknown origin) at 100 uM using p-nitrophenylbutyrate as substrate preincubated for 10 mins followed by substrate addition measured after 20 mins
Measure Name: inhibition (%)

# Test Smiles, Measure Name, Unit Spec, Quantitative Readout
rows = [
    ("C[C@]12CC[C@@H]3c4cc(-c5ccccc5)c(O)cc4CC[C@H]3[C@@H]1CCC2=O", "inhibition", "%", 39),
    ("CCc1ccc(-c2cc3c(c(-c4ccc(CC)cc4)c2O)CC[C@@H]2[C@@H]3CC[C@]3(C)C(=O)CC[C@@H]23)cc1", "inhibition", "%", 41),
    ("Cc1ccc(-c2cc3c(c(-c4ccc(C)cc4)c2O)CC[C@@H]2[C@@H]3CC[C@]3(C)C(=O)CC[C@@H]23)cc1", "inhibition", "%", 39),
]
